Data provenance is PubChem BioAssay AID708.

- Experimental Details: A340 optical interference by library compounds – biochemical, MLSMR library, data from PS, PMK, MK assays, artefact control, profiling panel (AID 708);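 note: initial absorbance extrapolated from kinetic A340 decline of NADH oxidation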
- Conditions Used: compound absorbance at 340 nm, fold over control; at 10 µM; stronger effect = higher value
Hit rate of the full screen: of about 65,000 compounds, fewer than 10 were called active. Only a sample is shown.
Recorded measurements of fold change, one per entry
Endpoint: fold change

INSERT INTO measurements (input_smiles, endpoint, reported_result) VALUES
  ('Cc1nnc(SCc2cc(=O)[nH]c(N3CCN(Cc4ccccc4)CC3)n2)s1', 'fold change', 1.01),
  ('CCCCN(CC)CCCNC(=O)CS(=O)(=O)Cc1nc(-c2cccc(OC)c2)oc1C', 'fold change', 1),
  ('CC(C)OC(=O)CN1C(=O)c2ccccc2C1=O', 'fold change', 1.01),
  ('c1cc(-n2cnnn2)ccc1NC1=NCCC1', 'fold change', 1.01),
  ('O=C(CN1CCN(C(=O)c2ccco2)CC1)Nc1ccc(Cl)c(C(F)(F)F)c1', 'fold change', 1),
  ('Cc1cc(C(=O)NCCCc2ccccc2)no1', 'fold change', 1);

====

Recorded measurements of fold change, one per entry
- Experimental Details: A340 optical interference by library compounds – biochemical, MLSMR library, data from PS, PMK, MK assays, artefact control, profiling panel (AID 708);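 note: initial absorbance extrapolated from kinetic A340 decline of NADH oxidation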
- Conditions Used: compound absorbance at 340 nm, fold over control; at 10 µM; stronger effect = higher value
Fewer than 10 of roughly 65,000 compounds were called active. Not all results are given here.
Endpoint: fold change

INSERT INTO results (compound, reported_result) VALUES
  ('Cc1ccc2nc(S(=O)(=O)O)[nH]c2c1', 1.02),
  ('Cc1ccc(NC(=O)CS(=O)CC(=O)N(c2ccccc2)C(C)C(=O)NC2CCCC2)cc1 (stereo unspecified)', 0.99),
  ('CCOc1ccc(-c2cn(S(=O)(=O)c3cccc4nsnc34)nc2N)cc1', 0.98),
  ('O=C(CCN1C(=O)c2ccccc2C1=O)NCCN1CCOCC1', 0.99),
  ('N#Cc1c(N)n(CCOC(=O)c2ccc(Cl)cc2)c2nc3ccccc3nc12', 1.01),
  ('Cc1ccc(-n2nc(-c3ccco3)cc2C(=O)NCc2cccnc2)cc1', 0.99),
  ('COc1ccc(C2CC(c3ccc(C)cc3)Nc3ncnn32)cc1 (stereo unspecified)', 0.99),
  ('Cc1ccc(NC2=NC(c3ccccc3)n3c(nc(C)cc3=O)N2)cc1 (stereo unspecified)', 1.01),
  ('O=C(Nc1cc(=O)[nH]c2ncnn12)c1ccccc1Cl', 0.98),
  ('O=C(OCC(=O)N1CCN(C(=O)c2ccco2)CC1)c1ccccc1Cc1ccccc1', 1),
  ('COC(=O)c1ccc(/C=N\n2c(C)nnc2C)cc1', 1.02),
  ('CC(C)(C)NC(=O)C(c1ccncc1)N(C(=O)CNC(=O)c1ccco1)c1ccc2c(c1)OCO2 (stereo unspecified)', 0.98),
  ('COc1ccc(C(=O)Cn2nnc(-c3ccc(N4CCOCC4)cc3)n2)cc1OC', 1),
  ('CCN1CCN(c2ncnc3c2oc2nc(C)c4c(c23)CC(C)(C)OC4)CC1', 0.99),
  ('Cn1c2c(c(=O)n(C)c1=O)C(c1ccc(O)cc1)Nc1ccccc1O2 (stereo unspecified)', 1),
  ('O=S(N1CCCCCC1)C12CC3CC(CC(C3)C1)C2 (stereo unspecified)', 0.99),
  ('CCCC1C(c2ccccc2)C(C#N)(C#N)C2(C#N)CC1(N)NC2=O (stereo unspecified)', 1.02),
  ('COc1ccc(N2C(=O)C3CCCN3C2c2cc(OC)c(OC)cc2OC)cc1 (stereo unspecified)', 1.01),
  ('CCOC(=O)C1CCCN(Cc2nc(N)nc(Nc3ccc(C)cc3)n2)C1 (stereo unspecified)', 1),
  ('ON=C1/C(=N\O)CC2(C/C1=N/O)OCCO2', 0.99),
  ('CCOc1ccc(Cn2nnc(C(=O)Nc3ccc(OC)cc3OC)c2N)cc1', 0.98),
  ('CCOC(=O)C1CCN(C(=O)Nc2ccc(Cl)cc2)CC1', 1.01),
  ('Cc1occc1C(=O)N1CCCc2ccccc21', 1.01),
  ('N#Cc1nc(N)nc(N(c2ccccc2)c2ccccc2)n1', 1),
  ('CC(C)OC(=O)C(C#N)c1nc2ccccc2nc1N1CCN(Cc2ccc3c(c2)OCO3)CC1 (stereo unspecified)', 1.02),
  ('CCOC(=O)c1c(CN2CCOCC2)n(-c2ccccc2)c2ccc(O)cc12', 0.98);
